All figures here come from PubChem BioAssay (NCI).

System: MOLT-4 leukemia
Experiment: NCI-60 one-dose screen, 48 h (100 = growth as untreated, 0 = no growth, -100 = all killed)
Details: 10 µM unless noted
Protocol: Growth inhibition of the MOLT-4 human tumor cell line is measured as a screen for anti-cancer activity. Cells are grown in 96 well plates and exposed to the test compound for 48 hours. Compounds are tested at a single concentration, which is 10^-5 M for most compounds. The reported endpoint is percent growth (GI% or GIPRCNT), where numbers from 0 - 100% represent growth inhibition, and numbers from -100% - 0 represent cell death. For example, a value of 40 represents 60% growth inhibition. […]
About 83,000 compounds went through this panel and 20% of them were active in at least one assay; those are over-represented in the sample as a whole.

compound	growth / %
CC[C@]12CN3CCc4c([nH]c5ccccc45)[C@@](C(=O)OC)(c4cc5c(cc4OC)N(C)[C@H]4[C@@](O)(C(=O)OC)[C@H](OC(C)=O)[C@]6(CC)C=CCN7CC[C@]54[C@@H]76)CC(C3)[C@H]1O2 (stereo partly specified)	25.7
O=C1/C(=C/c2ccc(F)c(F)c2)CN(C(=O)C(Cl)Cl)C/C1=C\c1ccc(F)c(F)c1	-21
CCN(CC)/C([O-])=c1\cccc\c1=C1\N=C(c2ccccc2)N=C1[n+]1ccc(-c2ccccc2)cc1	88
CCCCCCCCCCCCCCCC(=O)O[C@@H]1[C@@H](O)[C@@H](O)C([C@H](NC(=O)[C@@H]2C[C@@H](CCC)CN2C)[C@H](C)Cl)O[C@@H]1SC (stereo partly specified)	103
N=C(N)SCc1c2ccccc2c(CSC(=N)N)c2ccccc12	-5.95
CC1=C2[C@@H](CC1)[C@]1(C)O[C@@](C3CC3)(C[C@H]1OC(=O)CO)[C@H]2OC(=O)/C=C/c1ccccc1	77.6
COc1cc(OC)cc(-c2ccc(-c3ccc(C(=N)N)cn3)s2)c1	49.3
Cc1ccc(Cl)cc1N1CCN(C(=O)[C@@H]2C[C@@H]2c2ccc(F)cc2)CC1	78.5
[2H]C([2H])([2H])Oc1cc(F)ccc1/C=C/C(=O)/C=C(/C=C/c1ccc(F)cc1OC([2H])([2H])[2H])OB(F)F	1.25
C=C1CCC2C3(C)COC(c4ccc(NC(C)=O)cc4)OC3CCC2(C)C1C/C=C1/C(=O)OCC1O (stereo unspecified)	26.7
CC(=O)c1nn(-c2ccccc2)/c(=N/N=Cc2cn(-c3ccccc3)nc2-c2cc3ccccc3oc2=O)s1	95.9
N#C/C(=C\c1ccc(Br)cc1)n1nnc2c(F)cccc21	9.87
COc1ccccc1/C=C1\COc2ccc(O)cc2C1=O	21
CCOC(=O)c1cc2c(n1Cc1cc(OC)cc(OC)c1Br)-c1nc(NC(C)=O)sc1CCC2	46.7
CC/C(=C(/c1ccc(Cl)cc1)c1ccc(OCCN2CCOCC2)cc1)c1ccccc1	86
O=C(Nc1ccc2ncsc2c1)c1csc(Nc2ccc3[nH]ncc3c2)n1	49.8
Cn1cc2c(=O)nc3c(-c4nc5ccccc5[nH]4)n[nH]n3c2n1	47.8
CONC1=Nc2cc(NC(N)=NCc3ccccc3)c(N(C)C3CCCCC3)cc2OC1	54.2
CN(Cc1ccccc1)c1nc(Cl)c(C2CC(c3ccc(F)cc3)=NN2C=O)s1 (stereo unspecified)	91.9
c1ccc(-c2cc(-c3cc(-c4ccccc4)on3)no2)cc1	63.7
O=C(NNC(=S)Nc1ccccc1)c1ccncc1	104
Cc1ccc(Nc2nc(-c3cc(O)c(C)c(C)c3O)cs2)cc1	26.5
COc1ccc2c(O)c(/C=C3\N=Nc4nc(C)ccc43)oc2c1CC1CCNCC1	48.1
Clc1cccc(Nc2ncnc3ccc(-c4cncc(-n5cnnn5)c4)cc23)c1	58.9
Nc1n[nH]c2cccc(C#Cc3cccc(NC(=O)c4ccc(N5CCOCC5)c(C(F)(F)F)c4)c3)c12	7.67
Nc1ccc(-c2nc3ccc4[nH]ncc4c3c3c2CCCC3)cc1F	18.5
CCNC(=S)n1nc(SC)c(C(=O)OCC)c1N	81.3
CN1CCCc2cc(/C=C3\SC(=S)N(C(Cc4ccc(O)cc4)C(=O)O)C3=O)ccc21 (stereo unspecified)	103
CC1=C2[C@@H](CC1)[C@]1(C)O[C@@](C(C)C)(C[C@H]1OC(=O)CO)[C@H]2OC(=O)C1CC1c1ccccc1 (stereo partly specified)	75.6
CN1CCN(c2ccc(Nc3ncc(C(N)=O)c(NCCCNC(=O)C4CCC4)n3)cc2)CC1	18
Cc1ccc(-c2nc3nc(-c4ccc(Cl)cc4)nc(N4CCCNCC4)c3o2)cc1	-71.2
COC(=O)c1[nH]nc(OC)c1C1(C(C#N)c2nc3ccccc3s2)CCCc2ccccc21 (stereo unspecified)	102
CCOC(=O)c1nnn(Cc2cc(=O)oc3c2ccc2ccccc23)c1C	108
C=C(C)[C@@H]1CC[C@]2(C(=O)N3CCN(C)CC3)CC[C@]3(C)[C@H](CC[C@@H]4[C@@]5(C)CC(CCCNC(C)=O)(CCCNC(C)=O)[C@H](OC(C)=O)C(C)(C)[C@@H]5CC[C@]43C)[C@@H]12	85.7
COc1ccc(/C=N/NC(=O)CN2CCN(c3cc4c(cc3F)c(=O)c(C(=O)O)cn4C3CC3)CC2)cc1O	82.7
O=C([C@H]1C[C@H]1c1ccc(S(F)(F)(F)(F)F)cc1)N1CCN(c2cc(Cl)ccc2C(F)(F)F)CC1	76.9
